Every entry's value here was drawn from PubChem BioAssay AID314.

Test system: DBA/2 mice, P1534 leukemia ip, survival T/C
assay-explanation: NCI In Vivo Anticancer Drug Screen. Data for tumor model P1534 Leukemia (intraperitoneal) in DBA/2 mice
experimental-setup: endpoint: mean survival time; dose: 25.0 mg/kg/injection; schedule: Q01DX010 (ip); vehicle: saline; higher = longer survival
Inconclusive results and toxic doses are left out.
outcome-measure: T/C

Before answering, review these 4 worked examples.
INSERT INTO assay_data (molecule, outcome_measure, result) VALUES
  ('COS(C)(=O)=O', 'T/C', '88 % of control'),
  ('C/C=C1\CN(C=O)C2CC3c4ccccc4NC3C(=O)CC1C2C(=O)OC (configuration not stated)', 'T/C', '100 % of control'),
  ('COC1C(OC(N)=O)C(O)C(Oc2ccc3c(O)c(NC(=O)c4ccc(O)c(CC=C(C)C)c4)c(=O)oc3c2C)OC1(C)C (configuration not stated)', 'T/C', '100 % of control'),
  ('C[C@H]1C(=O)O[C@@H]2CCN3CC=C(COC(=O)[C@](C)(O)[C@@]1(C)O)[C@H]23', 'T/C', '100 % of control');

# input Would you kindly share the measured T/C for O=C1C=CC2(CCC23C=CC(=O)O3)O1 (configuration not stated) ?
# output 106 % of control

# input Would you kindly share the measured T/C for CN(C)/N=N/c1nc[nH]c1C(N)=O ?
# output 96 % of control

# input Would you kindly share the measured T/C for CS(=O)(=O)OCCC(=O)N1CCN(C(=O)CCOS(C)(=O)=O)CC1 ?
# output 120 % of control
